# Tested on: HCC-2998 colon
# Assay Comment: NCI-60 one-dose screen, 48 h
# Assay Conditions: 10 µM unless noted
About 83,000 compounds went through this panel and 20% of them were active in at least one assay; those are over-represented in the sample as a whole. Activity calls are given as the source filed them. The calls were made as follows: active = growth percent below 10; inactive = the rest.
Lab note: assign the record to one of true (1) = active, false (0) = inactive

# outcome recorded in this test, key = "COc1ccc(Cn2c(Br)c3c(c2Br)-c2nc(NC(=O)c4ccc(OC)cc4)sc2CC3)cc1"
false (0)

Recorded test call requested for "COC(=O)/C(=C\c1c(-c2ccccc2)[nH]c2ccccc12)S(C)(=O)=O"
false (0)

What did this assay record as the result for "CC[C@]1(O)C[C@@H]2CN(CCc3c([nH]c4ccccc34)[C@@](C(=O)OC)(c3cc4c(cc3OC)N(C)[C@H]3[C@@](O)(C(=O)OC)[C@H](OC(C)=O)[C@]5(CC)C=CCN6CC[C@]43[C@@H]65)C2)C1" ?
true (1)

For "COC(=O)c1cc2c(n1Cc1ccccc1)-c1oncc1CCC2" , what call appears in the results of this test?
false (0)

Name the outcome recorded for CN1C(=O)N(C)C2Nn3c(s/c(=C4\C(=O)N(CCc5ccccc5)c5ccccc54)c3=O)=NC21 (stereo not given) in the assay.
false (0)

Hi, do you know how "CCOc1ccc(-c2nonc2NC(=O)c2cccc(C)c2)cc1OCC" came out in this test?
false (0)

Hi team, can someone confirm the assay call for COc1nc2c(c(=O)n1C)N=C1c3ccccc3C(=O)C1C(c1ccccc1)N2 (stereo not given) ?
false (0)

Assay result, entry "O=C(CCc1nnc2sc(COc3ccccc3)nn12)c1nc2ncccc2[nH]1" — outcome?
false (0)

For CN1C(=O)N(C)C2C1NN=c1s/c(=C\c3ccc(Cl)cc3Cl)c(=O)n12 (stereo not given) , which call appears in the assay record?
false (0)

Which outcome did this test record for the molecule O=c1[nH]nnc2c1ncn2C1OC(CO)C(O)C1O (stereo not given) ?
false (0)

* * *

For each entry below, report its growth value.
# System: SK-MEL-28 melanoma
# Assay Comment: NCI-60 one-dose screen, 48 h (100 = growth as untreated, 0 = no growth, -100 = all killed)
# Assay Conditions: 10 µM
This is part of a sample that, as a whole, favours compounds with a hit. Of some 83,000 tested, about 20% had one in any assay.
Report as a plain number; the unit % is understood.

State its growth for this compound: COc1nc2c(c(=O)n1C)N=C1c3ccccc3C(=O)C1C(c1ccccc1)N2 (stereo not given)
90.5

Give growth for "Cc1nc(Nc2cn[nH]c2C(=O)Nc2ccc(CN3CCN(C)CC3)cc2)c2ccsc2n1"
107

Report growth for COc1cc(C2C(C#N)=C(N)OC3=C2C(=O)c2ccccc2C3=O)cc(OC)c1O (stereo not given)
66.4

State its growth for this compound: "S=C1CCCC(=S)N1"
106

// fetch growth given entry Cc1ccccc1CNC(=O)C1CN(c2ccc(Cl)cc2)N(c2ccc(Cl)cc2)C1=O (stereo not given)
91

Note down growth recorded for "Cc1ccc(OCCCCCCNCCO)c(C)c1"
15.5

For the compound CCOC(=O)C1=C(C)N=c2s/c(=C\c3ccccc3O)c(=O)n2C1c1ccc(OC)c2ccccc12 (stereo not given) , report growth.
-96.2

Please report growth for the following compound: "C[n+]1c2ccccc2nc2ccc(NCCO)cc21"
110

// Input: "Cc1cccc2c(=O)c3c(sc12)c(NCCN)nc1ccccc13" . Output its growth only.
-86.1

// fetch growth given entry C=CCN1C(=O)/C(=c2\sc3n(c2=O)NC2C(N=3)N(CC)C(=O)N2CC)c2ccccc21 (stereo not given)
59.9

Output measured growth for this item: "Nc1ccc(-c2nc3cc(Oc4ccc(Oc5ccc6[nH]c(-c7ccc(N)cc7)nc6c5)cc4)ccc3[nH]2)cc1"
101

Given CSc1nc2c(c(=O)[nH]1)N=C1c3ccccc3C(=O)C1C(c1ccccc1)N2 (stereo not given) , respond with its growth.
54

Respond only with growth recorded for "CCN(CC)CCCNc1ccnc2cc3ccccc3cc12"
65.3

State, in one line, measured growth of COCCN(C(=O)Cc1cccs1)C(C(=O)NCc1ccc(OC)cc1)c1ccc(C(C)C)cc1 (stereo not given)
113

Supply growth value. Item: "NC1(N2SC(S)=C3CCCC=C32)CCCCC1"
114

Fill in reported growth for this entry: O=C(NN1C(=O)CSC1c1ccc(Cl)cc1)c1[nH]c2ccc(F)cc2c1-c1ccccc1 (stereo not given)
101

Query growth for "COC(=O)/C(CCC=C(C)C)=C1\[C@@H](OC(C)=O)C[C@@]2(C)[C@H]1C[C@@H](O)[C@H]1[C@@]3(C)CC[C@H](NC(=O)c4cnccn4)[C@@H](C)[C@@H]3CC[C@@]12C"
111

State, in one line, measured growth of "O=C(Nc1ccc(N2CCNCC2)cn1)c1[nH]ncc1Nc1ncnc2sccc12"
-81.4

Entry "Nc1nc(-c2cnccn2)nn1-c1nc2ccccc2s1" needs its growth filled in; supply it.
104

Retrieve growth measured for "O=C(CSc1nc2ccccc2c(=O)n1-c1ccccc1)Nc1ccc(C(=O)/C=C/c2ccc(Cl)cc2)cc1" and print it.
106

* * *

What growth was measured for each of the following?
# System: SK-OV-3 ovarian
# Assay Comment: NCI-60 one-dose screen, 48 h (100 = growth as untreated, 0 = no growth, -100 = all killed)
# Assay Conditions: 10 µM unless noted
This is part of a sample that, as a whole, favours compounds with a hit. Of some 83,000 tested, about 20% had one in any assay.
The response must be a number in % with no trailing unit.

Give growth for "CCOc1ccc2nc(C)cc(Nc3ccc(Br)cc3)c2c1"
101

Give a short answer stating reported growth for "CC(=O)c1ccc2oc(=O)n(Cc3ccc(C#N)cc3)c(=O)c2c1" .
119

Supply growth value. Item: "O=c1oc2ccc(Cl)cc2c(=O)n1-c1ccc(Cl)cc1F"
-2.36

Query growth for "COc1ccc(/C=C/C(=O)c2c(C)nc3ccccc3c2/C=C/c2ccccc2)cc1O"
71.7

Fill in growth for record "COc1ccc(-c2c(-c3ccc(OC)c(O)c3)cnc3ncnn23)cc1"
110

Identify the reported growth for the following entry. "O=c1nc2sc3nc4ccccc4cc3cc-2s1"
108

Quote growth reported for "Cc1ccc2cc3c(N)c4c(C)ccc(C)c4nc3nc2c1" please.
93.3

Determine its reported growth: "Cc1ccc(Cc2cnc(NC(=O)CN3C(=O)/C(=C\c4ccccc4)SC3=S)s2)cc1"
104

Return value of growth for input "COc1cc(C(=O)Nc2ccc(-c3nc4ccccc4[nH]3)cc2)cc(OC)c1OC" , no commentary.
56.1

Using the record for "O=C1NC(=S)NC(=O)C1=Cc1cn(Cc2cn(Cc3cccc4ccccc34)nn2)c2ccccc12" , state its measured growth.
111

Tell me its growth given "O=C(Nc1ccc(F)cc1F)c1cc(Br)ccc1O" as the entry.
-21.8

Indicate its recorded growth; the molecule in question is COc1ccc(CN2CCCC(C(=O)c3ccc(C(F)(F)F)cc3)C2)c(O)c1 (configuration not stated)
26.1

Please give the documented growth of COc1cc(C2C(C#N)=C(N)OC3=C2C(=O)c2ccccc2C3=O)cc(OC)c1O (configuration not stated)
48.2

Recall and state the measured growth for "COc1cc2cc3c(=O)n4c(cc5cc(OC)ncc54)c(=O)n3c2cn1" .
113

Fill in reported growth for this entry: "Cc1ccc(S(=O)(=O)c2c(COC(=O)c3cccc(C)c3)c(-c3ccccc3)nn2C)cc1"
104

In one line, give reported growth of the entry "CCn1c(Cc2ccccc2Nc2c(Cl)cccc2Cl)nnc1SCC(=O)NN1C(=O)/C(=C/c2cccc(OC)c2OC)SC1=S" .
107

Report growth for "O=C(Nc1ccc(I)cc1F)c1cc(Cl)ccc1O"
4.21

Quickly give me recorded growth for "Cc1cc(Nc2ccc(OCc3ccccc3)cc2)nc2cc(O)ccc12"
86.9

Report growth for "CN1CCN(Cc2ccc(NC(=O)c3[nH]ncc3Nc3cc(OC4CCCC4)ncn3)cc2)CC1"
4.89

For the molecule "O=c1cc(NC2CCN(CCCc3ccccc3)CC2)c2cc(Cl)ccc2o1" , give its reported growth.
4.31

Input COc1ccc(-n2c(C(O)c3ccccc3)n[nH]c2=S)cc1 (configuration not stated) , output reported growth.
101

Please give the documented growth of "O=c1oc2ccc(I)cc2c(=O)n1-c1ccc(F)cc1F"
-19.4

* * *

# Test system: SW-620 colon
# Assay Comment: NCI-60 one-dose screen, 48 h
# Assay Conditions: 10 µM unless noted
Compounds without any hit were thinned out: in the full panel of roughly 83,000, 20% have a hit. Calls of active or inactive are those of the source. Rule for the calls: active = growth percent below 10; inactive = the rest.
Entry note: the call must match one of T (active), F (inactive)

Write down the call the test reported for this compound. Item: Oc1c(C(Nc2ccccn2)c2cccc(Oc3ccccc3)c2)ccc2cccnc12 (stereo not given)
T

Record lookup: outcome of this test for "CN(C)c1ccc(/C=C/c2ccnc3c(O)cccc23)cc1" ?
F

How did this test come out for "COc1ccc2sc(N(Cc3cccnc3)C(=O)c3ccc(C#N)cc3)nc2c1" ?
F

Assay outcome for "COc1ccc(Cn2c(Br)c3c(c2Br)-c2nc(NC(=O)c4ccc(OC)cc4)sc2CC3)cc1" : what was it?
F

Hi team, can someone confirm the assay call for "COc1ccc(N(C)c2nc(N)nc3sc4c(c23)CCCC4)cc1" ?
F
